Entries and their measured IC50 follow.
target: hTRPV3 (Homo sapiens (Human)); test: Whole-cell patch clamp, hTRPV3 Phase 1 / Phase 2 currents; format: cell-based; details: Phase 1 current, human TRPV3; read-out: hTRPV3 (nM) Phase 1
Quick note: give the figure in nM, leave out the unit.

Example cases with answers are listed next.
>>> print(df.to_string())
                                   compound  observable  result
0  Cc1ccccc1Oc1ccc(C2CCN(C(=O)c3ncccc3Cl)C2)c(CO)c1 (centres unmarked)        IC50     932
1  CCc1ccccc1-c1ccc(C2CCN(C(=O)c3ccc(C)cn3)C2)c(CO)c1 (centres unmarked)        IC50    89.8
2  CC(C)c1ccccc1-c1ccc(C2CCN(C(=O)c3ccc(Cl)cn3)C2)c(C(N)=O)c1 (centres unmarked)        IC50    61.7
3  O=C(c1cnc(Cl)cn1)N1CCC(c2ccc(-c3ccccc3C3CC3)cc2CO)C1 (centres unmarked)        IC50    12.9

// IC50 lookup, compound = CC(O)c1cc(F)ccc1-c1ccc(C2CCN(C(=O)c3ccc(Cl)cn3)C2)c(CO)c1 (centres unmarked) , result: 860

---

molecular target: hTRPV3 (Homo sapiens (Human), UniProt Q8NET8); assay: Whole-cell patch clamp, hTRPV3 Phase 1 / Phase 2 currents; type: cell-based; details: Phase 2 current; read-out: hTRPV3 (nM) (Phase 2)
Sequence (Q8NET8 whole entry): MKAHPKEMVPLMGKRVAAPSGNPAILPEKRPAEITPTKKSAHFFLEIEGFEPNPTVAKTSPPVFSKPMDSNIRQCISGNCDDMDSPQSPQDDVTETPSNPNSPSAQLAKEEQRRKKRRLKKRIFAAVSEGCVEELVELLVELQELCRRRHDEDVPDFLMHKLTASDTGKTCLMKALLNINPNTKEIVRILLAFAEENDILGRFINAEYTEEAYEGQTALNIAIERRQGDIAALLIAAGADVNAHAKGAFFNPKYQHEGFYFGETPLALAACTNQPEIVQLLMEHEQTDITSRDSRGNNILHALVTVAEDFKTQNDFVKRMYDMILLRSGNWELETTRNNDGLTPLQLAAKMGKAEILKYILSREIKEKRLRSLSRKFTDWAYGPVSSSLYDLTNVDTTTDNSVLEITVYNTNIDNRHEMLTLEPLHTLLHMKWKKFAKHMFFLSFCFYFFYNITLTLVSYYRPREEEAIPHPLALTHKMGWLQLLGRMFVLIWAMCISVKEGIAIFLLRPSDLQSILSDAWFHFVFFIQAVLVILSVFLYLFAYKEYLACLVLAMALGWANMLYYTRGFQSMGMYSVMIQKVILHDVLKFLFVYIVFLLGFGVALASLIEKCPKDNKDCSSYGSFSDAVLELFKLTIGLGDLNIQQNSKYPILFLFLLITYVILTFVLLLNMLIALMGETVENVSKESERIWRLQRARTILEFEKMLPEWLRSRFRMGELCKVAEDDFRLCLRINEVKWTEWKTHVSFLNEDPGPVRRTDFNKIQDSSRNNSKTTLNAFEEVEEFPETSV
Entries and their measured IC50 follow.
Quick note: give the figure in nM, leave out the unit.

Example cases with answers are listed next.
>>> print(df.to_string())
                             moleculesmiles  result
0  O=C(c1cccc(Cl)c1)c1ccc(CCO)c(N2CC[C@H](Oc3ncccc3Cl)C2)c1     307
1  COCc1ccccc1Oc1ccc(N2CC[C@H](Oc3ccc(F)cn3)C2)c(CCO)c1     748
2  N#Cc1nc(-c2ccccc2)ccc1N1CC[C@@H](Oc2ccc(C(F)(F)F)cn2)C1    2930
3  CC(C)Oc1cc(-c2ccccc2)ccc1N1CC[C@H](Oc2ccc(C(F)(F)F)cn2)C1    1470
4  CCc1ccccc1Oc1ccc(N2CC[C@H](OCc3ncccc3C)C2)c(CO)c1    64.8

Here is another compound to look at.
// IC50 lookup, compound = OCCCc1cc(-c2ccccc2)ccc1N1CC[C@H](Oc2ncccc2C(F)(F)F)C1 , result: 551

---

Entries and their measured IC50 follow.
target: human hERG channels (Homo sapiens (Human)); assay: hERG assay (patch clamp, CHO cells); assay type: cell-based; details: (PL); read-out: hERG (nM) (PL)
Sequence (Q12809 whole entry): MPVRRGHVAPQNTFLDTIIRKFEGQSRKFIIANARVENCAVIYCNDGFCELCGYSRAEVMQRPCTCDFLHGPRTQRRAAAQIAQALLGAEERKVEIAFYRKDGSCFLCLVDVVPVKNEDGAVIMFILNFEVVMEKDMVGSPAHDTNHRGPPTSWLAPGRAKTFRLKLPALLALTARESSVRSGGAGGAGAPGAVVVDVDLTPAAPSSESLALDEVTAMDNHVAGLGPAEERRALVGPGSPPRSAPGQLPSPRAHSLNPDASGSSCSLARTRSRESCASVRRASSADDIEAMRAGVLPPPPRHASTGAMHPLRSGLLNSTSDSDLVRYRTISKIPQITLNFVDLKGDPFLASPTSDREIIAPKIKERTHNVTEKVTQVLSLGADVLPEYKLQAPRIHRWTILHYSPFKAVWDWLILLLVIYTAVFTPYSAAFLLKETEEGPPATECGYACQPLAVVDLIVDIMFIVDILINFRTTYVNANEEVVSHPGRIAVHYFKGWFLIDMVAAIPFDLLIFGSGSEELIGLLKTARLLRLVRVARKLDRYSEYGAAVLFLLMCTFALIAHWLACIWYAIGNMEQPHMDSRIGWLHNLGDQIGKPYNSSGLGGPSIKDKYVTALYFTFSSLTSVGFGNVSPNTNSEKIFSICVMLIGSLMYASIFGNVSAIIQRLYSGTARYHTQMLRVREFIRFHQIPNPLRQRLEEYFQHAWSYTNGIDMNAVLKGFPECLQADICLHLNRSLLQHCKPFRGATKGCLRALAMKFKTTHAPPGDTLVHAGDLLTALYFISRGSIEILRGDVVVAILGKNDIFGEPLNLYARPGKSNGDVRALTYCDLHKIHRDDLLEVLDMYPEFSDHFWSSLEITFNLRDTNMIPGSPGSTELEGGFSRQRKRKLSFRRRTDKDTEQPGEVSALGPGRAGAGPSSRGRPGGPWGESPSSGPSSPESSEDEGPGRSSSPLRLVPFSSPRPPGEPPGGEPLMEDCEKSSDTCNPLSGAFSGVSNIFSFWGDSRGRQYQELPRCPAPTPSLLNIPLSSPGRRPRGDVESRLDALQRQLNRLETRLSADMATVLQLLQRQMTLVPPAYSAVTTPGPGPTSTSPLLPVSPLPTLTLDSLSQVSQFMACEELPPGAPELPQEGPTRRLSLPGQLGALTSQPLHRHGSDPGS
Quick note: give the figure in nM, leave out the unit.

Example cases with answers are listed next.
                                   compound  observable  result
0  CC(C)c1ccccc1-c1ccc(C2CCN(C(=O)c3ccccn3)C2)c(CO)c1 (centres unmarked)        IC50   18300
1  CCc1cc(C)ccc1-c1ccc(C2CCN(C(=O)c3ccc(F)cn3)C2)c(CO)c1 (centres unmarked)        IC50   17700
2  CC(C)c1ccccc1Oc1ccc(C2CCN(C(=O)c3ncccc3Cl)C2)c(CO)c1 (centres unmarked)        IC50   12600

// IC50 lookup, compound = O=C(c1ccc(F)cn1)N1CCC(c2ccc(-c3ccccc3C3CC3)cc2CO)C1 (centres unmarked) , result: 8460

// IC50 lookup, compound = O=C(c1ccc(F)cn1)N1CCC(c2ccc(-c3ccccc3)nc2CO)C1 (centres unmarked) , result: 5520

---

target: hTRPV3 (Homo sapiens (Human), UniProt Q8NET8); experiment: Whole-cell patch clamp, hTRPV3 Phase 1 / Phase 2 currents; assay type: cell-based; conditions: Phase 1 current, inward, whole-cell patch clamp; read-out: hTRPV3 Patch P1 Inwd
pIC50: −log10 of the molar value.
Entries and their measured pIC50 follow.

>>> df
                             moleculesmiles        result
0  N#Cc1ccc(O[C@H]2CCN(c3ccc(-c4ccccc4)cc3CO)C2)nc1  6.00 to 7.00
1  OCc1cc(Oc2ccc(Cl)cc2)ccc1N1C[C@@H](O)[C@H](Oc2ccc(C(F)(F)F)cn2)C1        < 6.00

Here is another compound to look at.
// pIC50 lookup, compound = CC(C)c1ccccc1Oc1ccc(N2CC[C@H](Oc3ncccc3F)C2)c(CCO)c1 , result: 7.00 to 8.00

---

Entries and their measured log10(IC50) follow.
target: hTRPV3 (Homo sapiens (Human), UniProt Q8NET8); assay: Whole-cell patch clamp, hTRPV3 Phase 1 / Phase 2 currents; type: cell-based; settings: Phase 1 current; read-out: hTRPV3 (nM) (Phase 1)
Values reflect log10 of reported IC50 (nM).

>>> print(df.to_string())
                                   molecule  result
0  CCc1cc(F)ccc1Oc1ccc(N2CC[C@H](Oc3ccccn3)C2)c(CO)c1 [Compound 1-330]    1.69
1  CC(O)c1cc(F)ccc1Oc1ccc(N2CC[C@H](Oc3ccccn3)C2)c(CO)c1 (stereo partly shown) [Compound 1-326]    3.17
2  OCc1cc(Oc2ccccc2F)ccc1N1CC[C@H](Oc2ncccc2Cl)C1 [Compound 1-270]    0.97
3  NC(=O)c1cc(-c2ccc(F)cc2)ccc1N1CC[C@H](Oc2ccc(C(F)(F)F)cn2)C1 [Compound 1-65]    2.68

// log10(IC50) lookup, molecule = Cc1ccccc1C(O)c1ccc(N2CC[C@H](Oc3ncccc3Cl)C2)c(CO)c1 (stereo partly shown) [Compound 1-247] , result: 2.12

// log10(IC50) lookup, molecule = OCc1cc(Oc2ccc(Cl)c(C(F)(F)F)c2)ccc1N1CC[C@H](Oc2ccccn2)C1 [Compound 1-303] , result: 1.75

// log10(IC50) lookup, molecule = COc1ccccc1Oc1ccc(N2CC[C@H](Oc3ccc(F)cn3)C2)c(CO)c1 [Compound 1-336] , result: 2.52

// log10(IC50) lookup, molecule = OCc1ccc(Oc2ccccc2Cl)cc1N1CC[C@H](Oc2ccc(C(F)(F)F)cn2)C1 [Compound 1-224] , result: 2.21

---

target: hTRPV3 (Homo sapiens (Human)); assay: Whole-cell patch clamp, hTRPV3 Phase 1 / Phase 2 currents; format: cell-based; conditions: Phase 1 current, inward, whole-cell patch clamp; read-out: hTRPV3 Patch P1 Inwd
observable: IC50

>>> print(df.to_string())
                                   compound          result
0  COc1ccccc1Oc1ccc(N2CC[C@H](Oc3ncccc3Cl)C2)c(CCO)c1  100 to 1000 nM
1  CC(C)Oc1cc(-c2ccccc2)ccc1N1CC[C@H](Oc2ccc(C(F)(F)F)cn2)C1       > 1000 nM

// IC50 lookup, compound = NC(=O)c1cc(-c2ccccc2)ccc1N1CC[C@@H](Oc2ncccc2Cl)C1 , result: > 1000 nM

// IC50 lookup, compound = OCCc1cc(C(O)c2cccc(Cl)c2)ccc1N1CC[C@H](Oc2ncccc2Cl)C1 (some centres unmarked) , result: > 1000 nM

// IC50 lookup, compound = CCc1ccccc1-c1ccc(C2CCN(C(=O)c3ccc(C(F)(F)F)cn3)C2)c(CO)c1 (centres unmarked) , result: 10 to 100 nM

// IC50 lookup, compound = COc1cc(-c2ccccc2Cl)ccc1N1CC[C@@H](Oc2ccc(C(F)(F)F)cn2)C1 , result: > 1000 nM

// IC50 lookup, compound = OCc1cc([C@@H](O)c2ccccc2Cl)ccc1N1CC[C@H](Oc2ncccc2F)C1 , result: 10 to 100 nM

---

target: hTRPV3 (Homo sapiens (Human), UniProt Q8NET8); experiment: Whole-cell patch clamp, hTRPV3 Phase 1 / Phase 2 currents; type: cell-based; details: Phase 2 current, inward, whole-cell patch clamp; read-out: hTRPV3 Patch P2 Inwd
observable: IC50

// IC50 lookup, compound = O=[N+]([O-])c1cc(-c2ccccc2)ccc1N1CC[C@H](Oc2ccc3cc(Cl)ccc3n2)C1 [Compound 1-70] , result: > 1000 nM

---

Entries and their measured IC50 follow.
target: hTRPV3 (Homo sapiens (Human)); assay: Whole-cell patch clamp, hTRPV3 Phase 1 / Phase 2 currents; assay type: cell-based; details: Phase 2 current; read-out: hTRPV3 (nM) (Phase 2)
Quick note: give the figure in nM, leave out the unit.

>>> df
                             moleculesmiles  observable  displayunit  result
0  NC(=O)c1cc(-c2ccccn2)ccc1N1CC[C@H](Oc2ccc(C(F)(F)F)cn2)C1        IC50           nM    2190

// IC50 lookup, compound = OCCc1cc(Oc2ccccc2F)ccc1N1CC[C@H](Oc2ncccc2F)C1 , result: 71.3

// IC50 lookup, compound = NC(=O)c1cc(-c2ccncc2)ccc1N1CC[C@H](Oc2ccc(C(F)(F)F)cn2)C1 , result: 3350

// IC50 lookup, compound = Cc1ccccc1C(=O)c1ccc(N2CC[C@H](Oc3ncccc3Cl)C2)c(CO)c1 , result: 136

// IC50 lookup, compound = Cc1cccnc1CO[C@H]1CCN(c2ccc(-c3ccccc3)cc2CO)C1 , result: 481

// IC50 lookup, compound = OCc1cc(Oc2ccccc2F)ccc1N1CC[C@H](Oc2ccccn2)C1 , result: 111

// IC50 lookup, compound = Cc1ccc(O[C@H]2CCN(c3ccc(-c4ncccc4C)cc3CO)C2)nc1 , result: 2260

// IC50 lookup, compound = COc1ccccc1Oc1ccc(N2CC[C@H](Oc3ccc(F)cn3)C2)c(CO)c1 , result: 384

// IC50 lookup, compound = OCc1cc(-c2ccccc2)ccc1N1CC[C@H](Oc2ccc(C(F)(F)F)cn2)C1 , result: 59

// IC50 lookup, compound = OCc1nc(-c2ccccc2)ccc1N1CC[C@H](Oc2nc(C(F)(F)F)cs2)C1 , result: 2900
